Each record here notes measured sensor-assay potency score (higher = more potent).
Molecular target: CCDC136
Test: pooled miR-30 sensor sort-seq; sequence = guide strand; also: reference of the scale not given here
Settings: shRNA
measureName: sensor-assay potency score (higher = more potent)

itemSequence | assaySystem | valueObserved
TTCATTTCCATTTCTGCACGGA | CCDC136 | -0.0377
TTGTTGACTGACAGAGAGCCAA | CCDC136 | -0.719
TTAAGTTCGCTTTCTTTCTCAT | CCDC136 | -0.0696
TTACAAGGAACTCAGGTTCTTA | CCDC136 | -0.441
TTTCTGAAGTCTGAGACTCTGC | CCDC136 | -0.127
TAACAGGGAAATCTCCTCCCGT | CCDC136 | -0.529
TTCCTGACACTTGTTCTTCATG | CCDC136 | -1.21
TAGAGAACGCAGCTCACCTTGG | CCDC136 | -0.542
TTTCTCATGCTCTAACAGGGAA | CCDC136 | -0.6
TTCAAGTTCATTCTGCATCCGG | CCDC136 | 0.279

----------
Molecular target: DDAH1
Experiment: pooled miR-30 sensor sort-seq; sequence = guide strand
Conditions: shRNA
Threshold check on sensor-assay potency score (higher = more potent): at or above -0.6 gives label 1, strictly below gives label 0.

itemSequence | assignedClass
TTAATTAAAACTGAGCAGCAGG | label 1
TAAACCTTTGCACTTTCTGGAT | label 0
TTCATCTTTCATCTCTACTATA | label 0
TACAGTTTGCTGCTATGTCATC | label 0
TAAAGTTGCATTTTCATCTTTC | label 1
TTAGATATATACAGTTTGCTGC | label 1
TTTCTGGATACTCTTCCGGGGT | label 0
TAAAACATCTCCGCCATCTAAA | label 0

----------
Documented sensor-assay potency score (higher = more potent) across a set of sequences
Molecular target: PTBP2
Assay: pooled miR-30 sensor sort-seq; sequence = guide strand
Conditions: shRNA
measureName: sensor-assay potency score (higher = more potent)

itemSequence | valueObserved
TTTAATGTATTATCTGTCTTTA | -0.808
TAGTTCGTCAGATCCTCTCTTC | 0.267
TGAACTAGCTAGACCAGTCTGC | 0.184
TTGCTAACCAACAGGACTGTAT | -0.182
TTAACCATAGTAATAGCTGCTT | 0.167
TTCATTTAAATTGCTAACCAAC | -1.15
TTGGCTGTAACTACCATGCTGC | -0.376
TTATCTTCAATACAGCACCAAA | -1.15
TTTAGTTCTTTGTGATTCGAGT | -0.551

----------
sensor-assay potency score (higher = more potent) values for the sequences below.
Biological target: CENPE
Experiment: pooled miR-30 sensor sort-seq; sequence = guide strand
Conditions: shRNA
measureName: sensor-assay potency score (higher = more potent)

itemSequence | valueObserved
TGTAGTATCTGAGTCAACCTTA | 0.878
TTACTTGGTGGTTCTGTCGGTC | 0.00856
TTGTCTTGTATCTCTTTCCTCA | 0.236
TTGAGTATCTATATTCATGTTA | 0.243
TAGCTGTTCATTTTGCTGCTTT | -0.023
TTTGTCAATAGTTTCCTGCTGC | 0.514
TAACACTCTCTAACATTTGTTG | 0.0489
TTGAGTGTCTCCTCTACTCTTC | -0.033
TTTTGTAGCACTGATTTCCTTT | -0.158
TTAGTTGCATCTCTTGATCTTT | 0.409
